# ASSAYED SYSTEM: Opioid receptor delta 1 (Bos taurus)
# Sequence (F1N083 whole entry): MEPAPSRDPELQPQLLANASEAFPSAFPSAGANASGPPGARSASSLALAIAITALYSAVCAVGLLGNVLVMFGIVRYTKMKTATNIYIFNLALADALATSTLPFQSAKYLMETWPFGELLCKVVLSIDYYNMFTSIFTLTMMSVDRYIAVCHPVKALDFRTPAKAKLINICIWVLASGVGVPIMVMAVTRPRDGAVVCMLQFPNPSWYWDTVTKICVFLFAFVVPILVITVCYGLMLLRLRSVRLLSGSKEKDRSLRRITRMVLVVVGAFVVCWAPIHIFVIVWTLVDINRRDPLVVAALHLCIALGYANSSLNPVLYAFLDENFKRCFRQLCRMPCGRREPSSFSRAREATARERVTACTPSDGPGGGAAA
What Ki was measured for each of the following?
Give bare numbers, in nM.

COc1ccc2c3c1O[C@H]1C(=O)CCC4(NC(=O)/C=C\c5ccc(Cl)cc5)C(C2)N(CC2CC2)CCC314 (stereo partly drawn) | 12
COc1ccc2c3c1O[C@H]1C(=O)CCC4(NC(=O)/C=C\c5ccc(Cl)cc5)C(C2)N(C)CCC314 (stereo partly drawn) | 0.75

Turning now to a further compound:
// Ki (Opioid receptor delta 1 (Bos taurus)) for COc1ccc2c3c1O[C@H]1C(=O)CCC4(NC(=O)/C=C\c5ccc([N+](=O)[O-])cc5)C(C2)N(CC2CC2)CCC314 (stereo partly drawn) = 16

These measurements were taken from BindingDB's records for PubMed 10087018.
